studyTarget: human recombinant DHFR (Homo sapiens, UniProt P00374)
Sequence (P00374 whole entry): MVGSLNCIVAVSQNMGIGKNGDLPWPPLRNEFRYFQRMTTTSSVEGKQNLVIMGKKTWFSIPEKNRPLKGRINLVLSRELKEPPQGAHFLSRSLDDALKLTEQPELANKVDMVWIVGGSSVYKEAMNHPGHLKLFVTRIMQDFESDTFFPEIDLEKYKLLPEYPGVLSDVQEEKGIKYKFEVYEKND
protocolNotes: DHFR inhibition in a cell-free assay
condition: read-out: Apparent Ki for DHFR inhibition
reportedProperty: pKi
Answers are plain numbers, as −log10 of the molar value.

Item under review: C#CCC(Cc1cnc2nc(N)nc(N)c2n1)c1ccc(C(=O)N[C@@H](CCC(=O)O)C(=O)O)cc1 (stereo partly shown) . Reported pKi?
7.35

These data points were gathered from patent US9901578B2.
